These data points were gathered from ChEMBL document CHEMBL1961873.

Test system: Leucine-rich repeat serine/threonine-protein kinase 2 (Homo sapiens), Q5S007 [G2019S]
Sequence (Q5S007 whole entry G2019S): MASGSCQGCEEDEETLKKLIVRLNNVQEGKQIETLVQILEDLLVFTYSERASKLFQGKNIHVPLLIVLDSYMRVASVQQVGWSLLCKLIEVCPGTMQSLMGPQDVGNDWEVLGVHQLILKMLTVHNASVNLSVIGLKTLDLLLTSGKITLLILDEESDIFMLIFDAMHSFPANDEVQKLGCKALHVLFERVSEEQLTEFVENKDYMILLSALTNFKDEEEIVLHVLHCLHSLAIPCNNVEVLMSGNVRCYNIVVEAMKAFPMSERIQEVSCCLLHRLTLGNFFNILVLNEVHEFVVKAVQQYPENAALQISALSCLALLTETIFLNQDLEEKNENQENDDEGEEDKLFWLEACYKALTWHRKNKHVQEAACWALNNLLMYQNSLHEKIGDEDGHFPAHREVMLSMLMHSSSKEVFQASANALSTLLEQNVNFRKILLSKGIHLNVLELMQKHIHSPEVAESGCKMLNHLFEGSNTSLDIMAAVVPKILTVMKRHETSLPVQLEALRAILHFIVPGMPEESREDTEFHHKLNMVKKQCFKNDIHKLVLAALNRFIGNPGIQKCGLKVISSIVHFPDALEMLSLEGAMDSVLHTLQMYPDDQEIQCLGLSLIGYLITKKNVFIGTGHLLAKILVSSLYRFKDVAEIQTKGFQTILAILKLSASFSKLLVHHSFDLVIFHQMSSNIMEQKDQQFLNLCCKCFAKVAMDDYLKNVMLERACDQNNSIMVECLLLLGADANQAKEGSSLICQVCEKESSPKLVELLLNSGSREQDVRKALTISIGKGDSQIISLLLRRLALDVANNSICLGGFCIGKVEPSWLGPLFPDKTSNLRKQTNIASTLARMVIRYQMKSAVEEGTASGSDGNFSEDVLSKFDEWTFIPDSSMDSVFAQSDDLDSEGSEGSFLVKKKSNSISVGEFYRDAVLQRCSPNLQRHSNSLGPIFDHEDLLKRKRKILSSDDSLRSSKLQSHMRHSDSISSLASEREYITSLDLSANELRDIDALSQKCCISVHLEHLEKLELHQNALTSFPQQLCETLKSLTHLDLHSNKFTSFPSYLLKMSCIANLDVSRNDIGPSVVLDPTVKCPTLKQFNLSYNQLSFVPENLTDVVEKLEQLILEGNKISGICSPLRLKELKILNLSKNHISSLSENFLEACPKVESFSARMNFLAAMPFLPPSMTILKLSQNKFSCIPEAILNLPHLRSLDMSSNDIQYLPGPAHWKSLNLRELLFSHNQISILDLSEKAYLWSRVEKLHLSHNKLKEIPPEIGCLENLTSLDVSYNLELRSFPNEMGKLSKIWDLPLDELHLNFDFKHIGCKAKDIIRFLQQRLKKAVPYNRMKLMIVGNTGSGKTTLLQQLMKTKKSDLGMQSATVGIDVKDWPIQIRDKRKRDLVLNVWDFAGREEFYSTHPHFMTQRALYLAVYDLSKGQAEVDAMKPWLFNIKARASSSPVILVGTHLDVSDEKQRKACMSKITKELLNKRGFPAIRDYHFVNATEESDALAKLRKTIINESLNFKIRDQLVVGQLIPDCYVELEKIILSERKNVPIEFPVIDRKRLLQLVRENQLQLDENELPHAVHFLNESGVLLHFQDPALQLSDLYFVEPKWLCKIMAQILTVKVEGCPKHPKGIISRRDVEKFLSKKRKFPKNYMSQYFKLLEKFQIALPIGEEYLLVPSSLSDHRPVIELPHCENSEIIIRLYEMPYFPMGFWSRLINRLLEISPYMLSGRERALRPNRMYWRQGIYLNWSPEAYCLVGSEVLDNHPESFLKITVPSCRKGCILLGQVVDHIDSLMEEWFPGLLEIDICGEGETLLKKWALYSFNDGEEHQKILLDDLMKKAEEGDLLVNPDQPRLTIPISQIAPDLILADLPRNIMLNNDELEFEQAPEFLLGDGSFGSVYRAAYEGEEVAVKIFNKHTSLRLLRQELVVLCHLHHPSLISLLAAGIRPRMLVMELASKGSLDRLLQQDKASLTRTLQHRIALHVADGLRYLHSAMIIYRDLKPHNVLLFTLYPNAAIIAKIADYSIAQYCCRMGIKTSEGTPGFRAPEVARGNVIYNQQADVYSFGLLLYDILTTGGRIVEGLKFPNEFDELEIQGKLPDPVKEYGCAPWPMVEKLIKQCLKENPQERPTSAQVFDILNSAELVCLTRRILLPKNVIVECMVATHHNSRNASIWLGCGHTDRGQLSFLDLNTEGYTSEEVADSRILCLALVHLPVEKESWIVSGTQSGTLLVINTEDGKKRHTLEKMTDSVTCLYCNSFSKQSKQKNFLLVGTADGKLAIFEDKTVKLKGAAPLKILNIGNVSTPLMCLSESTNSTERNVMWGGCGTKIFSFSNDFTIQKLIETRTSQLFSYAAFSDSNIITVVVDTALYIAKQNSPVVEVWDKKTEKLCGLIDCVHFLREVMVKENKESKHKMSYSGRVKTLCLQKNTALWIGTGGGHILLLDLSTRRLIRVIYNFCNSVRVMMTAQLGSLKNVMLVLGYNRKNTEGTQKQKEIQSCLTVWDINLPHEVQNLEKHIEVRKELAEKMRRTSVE
test conditions: at 1 µM
Response key: Criterion met means inhibition >= 5%; Criterion not met means inhibition < 5%.

Before answering, review these 5 worked examples.
chem smiles: Nc1ccc(C#Cc2cncnc2Nc2ccc(OCc3cccc(F)c3)c(Cl)c2)cc1
assay system: Leucine-rich repeat serine/threonine-protein kinase 2 (Homo sapiens), Q5S007 [G2019S]
category: Criterion not met

chem smiles: COC(=O)c1cncc(/C=C/c2c(C)cc(O)cc2C)c1
assay system: Leucine-rich repeat serine/threonine-protein kinase 2 (Homo sapiens), Q5S007 [G2019S]
category: Criterion met

chem smiles: c1ccc(Cc2nc3ccc(Nc4ncnc5ccccc45)cc3[nH]2)cc1
assay system: Leucine-rich repeat serine/threonine-protein kinase 2 (Homo sapiens), Q5S007 [G2019S]
category: Criterion met

chem smiles: Cc1ccc(C(=O)NC2CC2)cc1-c1ccc2[nH]ncc2c1
assay system: Leucine-rich repeat serine/threonine-protein kinase 2 (Homo sapiens), Q5S007 [G2019S]
category: Criterion not met

chem smiles: Cc1ccc(O)cc1Nc1ccnc2ccc(S(C)(=O)=O)cc12
assay system: Leucine-rich repeat serine/threonine-protein kinase 2 (Homo sapiens), Q5S007 [G2019S]
category: Criterion met

Textbook exercise: given the entry FC(F)(F)c1ccc(-c2nn3ncccc3c2-c2ccnc(Nc3ccc4c(c3)OCCO4)n2)cc1 , state whether its inhibition is greater than or equal to 5%.
Criterion met

Please tell me: is the molecule NC(=O)c1sc(-n2cnc3ccccc32)cc1OCc1ccccc1Br at or over 5% in terms of inhibition?
Criterion met

Say whether Cc1cc(Cl)cc2c1NC(=O)C2=NNc1ccc(S(N)(=O)=O)cc1 shows inhibition of 5% or more.
Criterion not met

Say whether NS(=O)(=O)c1ccc(NC=C2C(=O)Nc3ccc4ncsc4c32)cc1 shows inhibition of 5% or more.
Criterion met

Check if inhibition >= 5% (inclusive). Item: CS(=O)(=O)Nc1cccc(-c2ccc3c(NC(=O)C4CC4)n[nH]c3c2)c1
Criterion met
